- Species: Rattus norvegicus
- methodNotes: Open TG-GATES - Regimen: Single
- Assay type: toxicity, organism-based, Sprague-Dawley
- Parameters: regimen Single, gender Male, age 6 weeks
- measurementParameters: in vivo, po, 0 mg/kg, 9 h, tissue Blood, route gavage, dose level Control
Recorded Lym, one value per entry.
Respond with a number, then the unit of measure.

// solved cases for Lym follow
                                   molecule  result
0                   CC(C)(S)[C@@H](N)C(=O)O     80%
1  C[C@]12CCC(=O)C=C1CC[C@@H]1[C@@H]2CC[C@@]2(C)[C@H]1CC[C@]2(C)O   74.4%
2  CC(C)C(=O)Nc1ccc([N+](=O)[O-])c(C(F)(F)F)c1 [FLUTAMIDE]   76.8%

Would you mind telling me what Lym value was observed for CCN1CCCC1CNC(=O)c1cc(S(N)(=O)=O)ccc1OC (stereo not given) [SULPIRIDE] ?
74.2%

Query (molecule): CC(=N)S [THIOACETAMIDE] ; field requested: Lym
75%
